- System: Staphylococcus aureus
- MEASUREMENT NOTES: Toxicity in fluoroquinolone-resistant Staphylococcus aureus 1199B expressing NorA at 100 ug/ml after 24 hrs by microdilution method
- Type: organism-based
Reported growth inhibition (GI) values follow for various compounds
OBSERVABLE: growth inhibition (GI)

{"CHEMICAL SMILES": "Cn1c(B2OC(C)(C)C(C)(C)O2)cnc1Cl", "OBSERVABLE": "growth inhibition (GI)", "READOUT VALUE": "< 90%"}
{"CHEMICAL SMILES": "OB(O)c1ccnc(F)c1", "OBSERVABLE": "growth inhibition (GI)", "READOUT VALUE": "< 90%"}
{"CHEMICAL SMILES": "CC(C)(O)C(C)(C)OB(OC(C)(C)C(C)(C)O)c1ccnc(Cl)c1C#N", "OBSERVABLE": "growth inhibition (GI)", "READOUT VALUE": "< 90%"}
{"CHEMICAL SMILES": "OB(O)c1cccnc1Cl", "OBSERVABLE": "growth inhibition (GI)", "READOUT VALUE": "< 90%"}
{"CHEMICAL SMILES": "OB(O)c1ccnc(Cl)c1", "OBSERVABLE": "growth inhibition (GI)", "READOUT VALUE": "< 90%"}
{"CHEMICAL SMILES": "OB(O)c1ccsc1", "OBSERVABLE": "growth inhibition (GI)", "READOUT VALUE": "< 90%"}
{"CHEMICAL SMILES": "CC(C)(O)C(C)(C)OB(OC(C)(C)C(C)(C)O)c1cc(Br)cnc1Cl", "OBSERVABLE": "growth inhibition (GI)", "READOUT VALUE": "< 90%"}
{"CHEMICAL SMILES": "OB(O)c1ccc(Oc2ccc(Cl)nc2)nc1", "OBSERVABLE": "growth inhibition (GI)", "READOUT VALUE": "< 90%"}
{"CHEMICAL SMILES": "CC(C)(O)C(C)(C)OB(OC(C)(C)C(C)(C)O)c1cccnc1F", "OBSERVABLE": "growth inhibition (GI)", "READOUT VALUE": "< 90%"}
{"CHEMICAL SMILES": "CC1(C)OB(c2cncs2)OC1(C)C", "OBSERVABLE": "growth inhibition (GI)", "READOUT VALUE": "< 90%"}
{"CHEMICAL SMILES": "CCOc1ncccc1B(O)O", "OBSERVABLE": "growth inhibition (GI)", "READOUT VALUE": "< 90%"}
{"CHEMICAL SMILES": "OB(O)c1cnc2ccccc2c1", "OBSERVABLE": "growth inhibition (GI)", "READOUT VALUE": "< 90%"}
{"CHEMICAL SMILES": "CSc1ccc(B(O)O)cn1", "OBSERVABLE": "growth inhibition (GI)", "READOUT VALUE": "< 90%"}
{"CHEMICAL SMILES": "CC1(C)OB(c2cnc(-c3ccccc3)n2C(=O)c2ccccc2)OC1(C)C", "OBSERVABLE": "growth inhibition (GI)", "READOUT VALUE": "< 90%"}
{"CHEMICAL SMILES": "CC(C)(O)C(C)(C)OB(OC(C)(C)C(C)(C)O)c1ccc(Cl)nc1", "OBSERVABLE": "growth inhibition (GI)", "READOUT VALUE": "< 90%"}
{"CHEMICAL SMILES": "CCOc1ccc(B(OC(C)(C)C(C)(C)O)OC(C)(C)C(C)(C)O)cn1", "OBSERVABLE": "growth inhibition (GI)", "READOUT VALUE": "< 90%"}
{"CHEMICAL SMILES": "OB(O)c1cccnc1F", "OBSERVABLE": "growth inhibition (GI)", "READOUT VALUE": "< 90%"}
{"CHEMICAL SMILES": "F[B-](F)(F)c1cccnc1.[K+]", "OBSERVABLE": "growth inhibition (GI)", "READOUT VALUE": "< 90%"}
{"CHEMICAL SMILES": "Cc1cc(B(O)O)cnc1Br", "OBSERVABLE": "growth inhibition (GI)", "READOUT VALUE": "< 90%"}
{"CHEMICAL SMILES": "CC(C)(O)C(C)(C)OB(OC(C)(C)C(C)(C)O)c1ccncc1", "OBSERVABLE": "growth inhibition (GI)", "READOUT VALUE": "< 90%"}
{"CHEMICAL SMILES": "CC(C)[Si](Oc1ncc(B2OC(C)(C)C(C)(C)O2)o1)(C(C)C)C(C)C", "OBSERVABLE": "growth inhibition (GI)", "READOUT VALUE": "< 90%"}
{"CHEMICAL SMILES": "Cc1cc(B(OC(C)(C)C(C)(C)O)OC(C)(C)C(C)(C)O)cnc1N1CCOCC1", "OBSERVABLE": "growth inhibition (GI)", "READOUT VALUE": "< 90%"}
{"CHEMICAL SMILES": "CSc1ncccc1B(O)O", "OBSERVABLE": "growth inhibition (GI)", "READOUT VALUE": "< 90%"}
{"CHEMICAL SMILES": "COc1nccc(B(O)O)c1Cl", "OBSERVABLE": "growth inhibition (GI)", "READOUT VALUE": "< 90%"}
{"CHEMICAL SMILES": "CC(C)(O)C(C)(C)OB(OC(C)(C)C(C)(C)O)c1ccncc1Br", "OBSERVABLE": "growth inhibition (GI)", "READOUT VALUE": "< 90%"}
{"CHEMICAL SMILES": "OB(O)c1ccc2[nH]ncc2c1", "OBSERVABLE": "growth inhibition (GI)", "READOUT VALUE": "< 90%"}
{"CHEMICAL SMILES": "CC(C)(O)C(C)(C)OB(OC(C)(C)C(C)(C)O)c1ccnc(Cl)c1", "OBSERVABLE": "growth inhibition (GI)", "READOUT VALUE": "< 90%"}
